Test system: SK-MEL-28 melanoma
test: NCI-60 one-dose screen, 48 h (100 = growth as untreated, 0 = no growth, -100 = all killed)
test.conditions: 10 µM unless noted
This is part of a sample that, as a whole, favours compounds with a hit. Of some 83,000 tested, about 20% had one in any assay.
Label T when growth is at or above 60%; anything below gets F.

COc1ccc(Nc2ncccc2/C=C/C(=O)c2cc(OC)c(OC)c(OC)c2)cc1 F
CCc1ccc(CCC(=O)Nc2ncc(Cc3ccccc3)s2)o1 F
COc1ccc(/C=C/C(=O)c2cc3c(N)c(C(=O)Nc4cccc(Cl)c4C)sc3nc2C)cc1 F
CS(=O)(=O)c1nnc(-c2ccccc2)s1 T
C=C1C(=O)O[C@H]2[C@H]1CC/C(COC(=O)CSCSCC(=O)OC/C1=C/CC[C@@]3(C)O[C@H]3[C@H]3OC(=O)C(=C)[C@@H]3CC1)=C\CC[C@@]1(C)O[C@@H]21 F

Determine whether this molecule has growth no lower than 60%: C[C@H](CCCC(=O)NCC#CCN1CCN(C)CC1)[C@H]1CC[C@H]2[C@@H]3CC[C@@H]4CC(=O)CC[C@]4(C)[C@H]3CC[C@]12C
T

Textbook exercise: given the entry O=C(CSc1nc(-c2ccccc2)cc(=O)[nH]1)Nc1nc(-c2ccccc2)cs1 , state whether its growth is greater than or equal to 60%.
T

---

Tested on: M14 melanoma
test: NCI-60 one-dose screen, 48 h
test.conditions: 10 µM unless noted
This is part of a sample that, as a whole, favours compounds with a hit. Of some 83,000 tested, about 20% had one in any assay. The source made the active and inactive calls. How the source made its calls: active means growth percent below 10; inactive means the rest.
Response enum: Yes for active, No for inactive

Known results for compounds:
compound	group
O=C(CCCCCCN1CC(=O)N2[C@H](c3ccc(Cl)cc3)c3[nH]c4ccccc4c3C[C@@H]2C1=O)NO	No
CC1C(/C=N/NC(N)=S)C(C#N)(C#N)C1(C#N)C#N (centres undefined)	No
COc1ccc(-c2nn(-c3ccccc3)cc2/C=C/C(=O)NNC(=O)Nc2ccc(C)cc2)cc1	No
CC1(C)OB(O)c2cc(-c3nc4ccc5[nH]ncc5c4c4c3CCCC4)ccc21	No
Cc1cn(-c2cc(NC(=O)c3cncc(C#Cc4c(N)ncc5ccc(F)cc45)c3)cc(C(F)(F)F)c2)cn1	No

Record request — test call for CCS/C(Nc1ccccc1)=C(\C#N)C(=O)Nc1ccc(OC)cc1
No

Recorded test outcome, item O=C(CN1CCCCCC1)Nc1nc2ccc(NCc3ccc(Cl)cc3)cc2s1
No

Each compound tested received a call. Report the one for COc1ccc(-c2ccc(-c3ccc(C(=N)N)nc3)s2)cc1Cl .
Yes

Fill in: this test's call for COC(=O)CCC/C=C\C[C@H]1C=CC(=O)/C1=C/C[C@@H](O)C/C=C\CC(F)(F)F is ___
Yes

---

Test system: NCI-H522 lung
test: NCI-60 one-dose screen, 48 h
test.conditions: 10 µM unless noted
Compounds without any hit were thinned out: in the full panel of roughly 83,000, 20% have a hit. Active and inactive are the calls of the source. How the source made its calls: active means growth percent below 10; inactive means the rest.
Answer with one of the outcomes yes (active), no (inactive)

For CCCCCCCCCCCCCOC(=O)c1c(C)[nH]c(/C=C2\N=C(c3ccc[nH]3)C=C2OC)c1C , what call appears in the results of this test?
yes

Per the records of this test, what outcome belongs to C=CC(=O)Nc1ccc(Nc2nccc(-c3ccc(N4CCCC4)c(C#N)c3)n2)cc1 ?
no

What outcome does the record of this test show for Nc1ccc(-c2csc(-n3[nH]c(=O)ccc3=O)n2)cc1 ?
no

What call does the record list for O=C1Nc2ccccc2C1(c1c[nH]c2ccccc12)c1c[nH]c2ccccc12 ?
no
